target: Ataxin-2 (Homo sapiens); assay: qHTS for Inhibitors of ATXN expression.; assay type: functional
Hit rate of the full screen: of about 400,000 compounds, about 2,100 (0.53%) were called active. Roughly 14% stayed inconclusive and do not appear here. This is one part of a sample in which actives are shown more often than they occur.
MEASURE_NAME: Potency

As a guide, the following entries are already answered.
MOLECULE: Cc1cc(C)c(C#N)c(OCc2ccc(Cl)nc2)n1
Potency: inactive

MOLECULE: Cc1ccc(O)c(Nc2c3ccccc3nc3ccccc23)c1
Potency: inactive

MOLECULE: Cc1c(C2(O)CCCCC2)[nH]c2cc(C(F)(F)F)ccc12
Potency: 35.5 µM (active)

MOLECULE: O=S(=O)(NCC(Nc1ccc(Cl)cc1)c1ccccc1)c1ccccc1 (stereo unspecified)
Potency: 22.4 µM (active)

Parameter requested: Potency. Apply to each item below.
1. O=C(Nc1cccc(-c2cn3c(n2)SCC3)c1)c1ccc2c(c1)OCO2
2. O=S(=O)(Nc1nc2ccccc2nc1Cl)c1ccc(Cl)cc1
3. Cc1c(C(=O)Nc2ccc3c(c2)OCCO3)sc2nc(-c3ccccc3)cn12
4. Cc1ccc2[nH]c(NC3=NC(=O)c4ccccc43)nc2c1
5. CC(C(=O)NC1CCCCC1)N(Cc1ccc(F)cc1)C(=O)c1snc(C(N)=O)c1N (stereo unspecified)
6. Cc1ccsc1C(=O)Nc1ccc(O)c(-c2nc3ccccc3s2)c1
7. CCc1c(C2(O)CCCCC2)[nH]c2ccc(C(F)(F)F)cc12

Resp:
["inactive", "inactive", "39.8 µM (active)", "inactive", "inactive", "inactive", "25.1 µM (active)"]

###

target: Ataxin-2 (Homo sapiens) (UniProt Q99700); assay: qHTS for Inhibitors of ATXN expression.; format: functional
Sequence (Q99700 whole entry): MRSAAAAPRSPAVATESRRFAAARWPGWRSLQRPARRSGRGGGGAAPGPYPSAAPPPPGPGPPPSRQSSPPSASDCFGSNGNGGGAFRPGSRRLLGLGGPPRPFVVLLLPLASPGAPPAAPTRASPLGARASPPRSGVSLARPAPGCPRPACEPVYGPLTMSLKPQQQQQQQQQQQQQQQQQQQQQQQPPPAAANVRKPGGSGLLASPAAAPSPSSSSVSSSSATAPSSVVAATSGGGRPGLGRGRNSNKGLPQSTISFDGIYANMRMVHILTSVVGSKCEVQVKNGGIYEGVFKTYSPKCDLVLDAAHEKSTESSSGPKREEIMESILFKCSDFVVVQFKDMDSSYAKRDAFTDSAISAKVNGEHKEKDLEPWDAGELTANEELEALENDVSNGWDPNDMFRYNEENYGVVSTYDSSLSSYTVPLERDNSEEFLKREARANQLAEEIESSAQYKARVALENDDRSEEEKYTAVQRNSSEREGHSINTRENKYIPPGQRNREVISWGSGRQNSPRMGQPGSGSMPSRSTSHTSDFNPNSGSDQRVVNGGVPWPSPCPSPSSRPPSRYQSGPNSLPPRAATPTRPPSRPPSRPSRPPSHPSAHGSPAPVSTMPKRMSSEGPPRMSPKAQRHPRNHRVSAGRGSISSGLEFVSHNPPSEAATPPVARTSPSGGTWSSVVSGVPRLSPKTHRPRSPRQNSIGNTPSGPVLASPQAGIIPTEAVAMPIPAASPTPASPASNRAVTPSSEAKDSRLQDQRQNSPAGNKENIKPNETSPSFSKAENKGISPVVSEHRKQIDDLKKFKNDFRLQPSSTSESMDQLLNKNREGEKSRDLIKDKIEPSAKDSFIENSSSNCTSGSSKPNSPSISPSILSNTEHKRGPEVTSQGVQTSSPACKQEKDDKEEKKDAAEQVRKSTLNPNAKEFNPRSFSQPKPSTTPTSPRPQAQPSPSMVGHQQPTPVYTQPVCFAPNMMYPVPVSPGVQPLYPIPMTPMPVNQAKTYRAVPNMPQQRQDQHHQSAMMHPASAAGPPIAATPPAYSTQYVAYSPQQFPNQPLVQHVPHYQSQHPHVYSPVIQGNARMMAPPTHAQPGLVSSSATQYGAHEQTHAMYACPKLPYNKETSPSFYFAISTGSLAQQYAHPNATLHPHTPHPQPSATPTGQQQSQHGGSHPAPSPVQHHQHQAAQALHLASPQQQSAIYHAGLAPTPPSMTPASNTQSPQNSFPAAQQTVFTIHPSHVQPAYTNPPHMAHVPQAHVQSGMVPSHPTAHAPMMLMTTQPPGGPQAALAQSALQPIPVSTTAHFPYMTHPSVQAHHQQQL
Among all 400,000 compounds or so, about 2,100 (0.53%) were called active. Inconclusive results (about 14%) are left out. This is one part of a sample in which actives are shown more often than they occur.
MEASURE_NAME: Potency

SMI: CN(C)c1ccc(/C=N/NC(=O)c2ccccn2)cc1
MEASURE_NAME: Potency
RESULT: inactive
//
SMI: C[C@H](CO)N1C[C@H](C)[C@@H](CN(C)C(=O)Nc2ccccc2)Oc2c(NC(=O)Nc3ccc(C(F)(F)F)cc3)cccc2C1=O
MEASURE_NAME: Potency
RESULT: 39.8 µM (active)
//
SMI: Nc1nc(N)c2nc(-c3ccccc3)c(N)nc2n1
MEASURE_NAME: Potency
RESULT: inactive
//
SMI: CN(C)c1ccc(-c2[nH]nc(O)c2NC(=O)c2ccccn2)cc1
MEASURE_NAME: Potency
RESULT: 25.1 µM (active)

Req: Returns the measured Potency for the input compound. Input: COc1ccc2nc(N3CCCCC3)c(C#N)cc2c1
Resp: inactive

###

target: Ataxin-2 (Homo sapiens) (UniProt Q99700); assay: qHTS for Inhibitors of ATXN expression.; format: functional
The campaign covered roughly 400,000 compounds. About 2,100 (0.53%) were called active. Another 14% or so got no clear call; they are omitted. No rule for the calls is given here. The full list was thinned out, with actives kept by preference.
Mark one answer only. Choices: active, inactive

Example results:
COMPOUND: CCOc1ccccc1NC(=O)Cn1ncc2ccc([N+](=O)[O-])cc21
TESTED_ON: Ataxin-2 (Homo sapiens) (UniProt Q99700)
ASSIGNED_LABEL: inactive
--
COMPOUND: CCS(=O)(=O)c1nc(S(=O)(=O)c2ccc(Cl)cc2)c(N2CCN(CCO)CC2)s1
TESTED_ON: Ataxin-2 (Homo sapiens) (UniProt Q99700)
ASSIGNED_LABEL: inactive
--
COMPOUND: Nc1nc(O)nc(O)c1N=Cc1ccccc1
TESTED_ON: Ataxin-2 (Homo sapiens) (UniProt Q99700)
ASSIGNED_LABEL: inactive
--
COMPOUND: COCCNc1cc(C)nc2cc(-c3ccc(C)cc3)nn12
TESTED_ON: Ataxin-2 (Homo sapiens) (UniProt Q99700)
ASSIGNED_LABEL: inactive
--
COMPOUND: Cc1ccc(S(=O)(=O)Nc2ccc3c(c2)CC(=O)N([C@H](C)CO)C[C@H](C)[C@H](CN(C)Cc2ccc4c(c2)OCO4)O3)cc1
TESTED_ON: Ataxin-2 (Homo sapiens) (UniProt Q99700)
ASSIGNED_LABEL: active

Req: Test call for this compound, please: Cc1ccc(Nc2cc(C)nc3nc(Cc4ccc(Cl)cc4)nn23)cc1
Resp: active

Req: Status in this test for O=C/C(=C\Nc1ccc(S(=O)(=O)CCO)cc1)c1nc2cc(Cl)ccc2o1 ?
Resp: inactive

Req: What did this assay record as the result for COc1ccc(-c2sc(C(=O)c3ccc(Cl)cc3Cl)cc2CC(=O)O)cc1 ?
Resp: inactive

Req: # outcome recorded in this test, key = CCN(CC)S(=O)(=O)c1ccc(N2CCCC2)c(NC(=O)Cc2cc(OC)c(OC)c(OC)c2)c1
Resp: inactive
